A collection of substances and their measured APOE RNA (% UTC)
- Test system: human APOE RNA
- assay-comment: Dose-dependent inhibition of human APOE RNA in HepG2 cells, electroporation, 50,000 cells per well, RT-PCR normalized to GAPDH (Example 4, Tables 8-10)
- Assay type: cell-based
- assay-setup: 33 nM; HepG2, electroporation, 16-hour treatment
Strand notation (5' to 3'): a small letter for the sugar, then the base; units joined by * are phosphorothioate-linked, units joined directly phosphodiester-linked; [ ] holds rarer units or linkages, { } end groups; capitals alone tell only the bases. [ms] = mesyl phosphoramidate linkage; e = 2'-O-(2-methoxyethyl) (MOE); k = constrained ethyl (cEt); [5mC] = 5-methylcytosine; d = 2'-deoxy (DNA)
observation-type: APOE RNA (% UTC)

>>> endpoint_value("1757571 (eA*e[5mC]eTeT*eG*kG*dT*dG[ms]dA[ms]dA[ms]dT*d[5mC]*dT*dT*dT*dA[ms]eT*eT*eA*eA; antisense) [Compound 1757571]")
98
>>> endpoint_value("1757566 (eA*e[5mC]eTkTkG*dG*dT*dG*dA*dA*dT*d[5mC]*dT*dT*dT*eAeTeT*eA*eA; antisense) [Compound 1757566]")
85
>>> endpoint_value("1757574 (eA*e[5mC]eTeT*eG*eG*dT*dG[ms]dA[ms]dA[ms]dT*d[5mC]*dT*dT*dT*dA[ms]kT*kT*eA*eA; antisense) [Compound 1757574]")
85
>>> endpoint_value("1757582 (eT*eTeGkGkT*dG*dA*dA*dT*d[5mC]*dT*dT*dT*dA*dT*eTeAeA*eA*e[5mC]; antisense) [Compound 1757582]")
72
>>> endpoint_value("1757557: mixed MOE/cEt gapmer TTGGTGAATCTTTATTAA, sugar eeeeeddddddddeekke, linkages soossssssssssooss (eT*eTeGeG*eT*dG*dA*dA*dT*d[5mC]*dT*dT*dT*eAeTkT*kA*eA) [compound 1757557]")
89

====

- System: human APOE RNA
- assay-comment: Dose-dependent reduction of human APOE RNA in HepG2 cells, electroporation, 20,000 cells per well, average of GAPDH- and PPIA-normalized results (Example 4, Table 12)
- Format: cell-based
- assay-setup: 5 nM, HepG2, 20,000 cells per well
- Procedure: HepG2 cells plated at a density of 20,000 cells per well were treated by electroporation with various concentrations of modified oligonucleotide as specified in the tables below. […] APOE RNA levels were measured using the human primer probe set RTS3073 (described herein above). […] The half maximal inhibitory concentration (IC50) of each modified oligonucleotide was calculated in GraphPad Prism 10 (GraphPad Software, San Diego, CA) and is also presented in the table below.
Strand notation (5' to 3'): a small letter for the sugar, then the base; units joined by * are phosphorothioate-linked, units joined directly phosphodiester-linked; [ ] holds rarer units or linkages, { } end groups; capitals alone tell only the bases. [ms] = mesyl phosphoramidate linkage; e = 2'-O-(2-methoxyethyl) (MOE); k = constrained ethyl (cEt); [5mC] = 5-methylcytosine; d = 2'-deoxy (DNA)
observation-type: APOE RNA (% UTC)

>>> endpoint_value("1778111: modified oligonucleotide complementary to human APOE RNA (eA*e[5mC]eTeTeG*kG*dT*dG[ms]dA[ms]dA*dT*d[5mC]*dT*dT*dT*dA[ms]eTeT*eA*eA; antisense) [compound 1778111]")
106
>>> endpoint_value("^mCksTksTksGdzGdzTdzGdzAdzAdzTds^mCdsTdsTdsTdsAdsTdsTksAksAdzAk (antisense k[5mC]*kT*kT*dG[ms]dG[ms]dT[ms]dG[ms]dA[ms]dA[ms]dT*d[5mC]*dT*dT*dT*dA*dT*kT*kA*dA[ms]kA) [Compound No. 1785602]")
97
>>> endpoint_value("1778128: modified oligonucleotide complementary to human APOE RNA (eA*e[5mC]eTeTkGkG*dT*dG[ms]dA[ms]dA*dT*d[5mC]*dT*dT*dT*dA[ms]kTeT*eA*eA; antisense) [compound 1778128]")
96
>>> endpoint_value("1785599: modified oligonucleotide complementary to human APOE RNA (k[5mC]*kT*kT*dG[ms]dG[ms]dT[ms]dG[ms]dA[ms]dA[ms]dT[ms]d[5mC]*dT*dT*dT*dA*dT*kT*kA*dA[ms]kA; antisense) [compound 1785599]")
100
>>> endpoint_value("1785617: modified oligonucleotide complementary to human APOE RNA (k[5mC]*dT[ms]dT[ms]kG*dG[ms]kT*dG[ms]dA[ms]dA[ms]dT[ms]d[5mC]*dT*dT*dT*dA*dT*kT*kA*dA[ms]kA; antisense) [compound 1785617]")
95
>>> endpoint_value("1778130: modified oligonucleotide complementary to human APOE RNA (eA*e[5mC]eTeTeG*kG*dT*dG[ms]dA[ms]dA*dT*d[5mC]*dT*dT*dT*dA[ms]kTkT*eA*eA; antisense) [compound 1778130]")
99
>>> endpoint_value("1746809 (k[5mC]*dT[ms]kT*dG[ms]kG*dT[ms]dG[ms]dA[ms]dA[ms]dT*d[5mC]*dT*dT*dT*dA[ms]dT*dT[ms]kA*kA*kA; antisense) [Compound 1746809]")
97

====

A collection of substances and their measured APOE RNA (% control) Cortex
- Tested on: human APOE RNA
- assay-comment: Duration of action study in APOE C57BL/6NTac-Apoeem7250 knock-in mice (Example 16)
- Assay type: in vivo
- assay-setup: cortex; 300 μg ICV; 112 days post-dose
Strand notation (5' to 3'): a small letter for the sugar, then the base; units joined by * are phosphorothioate-linked, units joined directly phosphodiester-linked; [ ] holds rarer units or linkages, { } end groups; capitals alone tell only the bases. [ms] = mesyl phosphoramidate linkage; e = 2'-O-(2-methoxyethyl) (MOE); k = constrained ethyl (cEt); [5mC] = 5-methylcytosine; d = 2'-deoxy (DNA)
observation-type: APOE RNA (% control) Cortex

>>> endpoint_value("1746810 (k[5mC]*dT[ms]kT*dG[ms]dG[ms]kT*dG[ms]dA[ms]dA[ms]dT*d[5mC]*dT*dT*dT*dA[ms]dT*dT[ms]kA*kA*kA; antisense) [Compound 1746810]")
63
>>> endpoint_value("1652901: 6-10-4 MOE gapmer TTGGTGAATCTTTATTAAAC, linkages sooooossssssssssoss (antisense eT*eTeGeGeTeGdA*dA*dT*d[5mC]*dT*dT*dT*dA*dT*dT*eAeA*eA*e[5mC]) [compound 1652901]")
90

====

A collection of substances and their measured APOE RNA (% UTC)
- Tested on: human APOE RNA
- assay-comment: Dose-dependent inhibition of human APOE RNA in HepG2 cells, electroporation, 24 hours (Example 6)
- Format: cell-based
- assay-setup: 3,200 nM
Strand notation (5' to 3'): a small letter for the sugar, then the base; units joined by * are phosphorothioate-linked, units joined directly phosphodiester-linked; [ ] holds rarer units or linkages, { } end groups; capitals alone tell only the bases. [ms] = mesyl phosphoramidate linkage; e = 2'-O-(2-methoxyethyl) (MOE); k = constrained ethyl (cEt); [5mC] = 5-methylcytosine; d = 2'-deoxy (DNA)
observation-type: APOE RNA (% UTC)

>>> endpoint_value("1693105: 6-10-4 MOE gapmer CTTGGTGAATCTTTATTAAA, linkages sosssszzzssssszssss (e[5mC]*eTeT*eG*eG*eT*dG[ms]dA[ms]dA[ms]dT*d[5mC]*dT*dT*dT*dA[ms]dT*eT*eA*eA*eA) [compound 1693105]")
23
>>> endpoint_value("1736516 (e[5mC]*eTeTeG*eG*kT*dG[ms]dA[ms]dA[ms]dT*d[5mC]*dT*dT*dT*dA[ms]dT*eT*eA*eA*eA; antisense) [Compound 1736516]")
29
>>> endpoint_value("1736525: 6-10-4 MOE gapmer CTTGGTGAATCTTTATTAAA, linkages sooosszzsssssssssss (e[5mC]*eTeTeGeG*eT*dG[ms]dA[ms]dA*dT*d[5mC]*dT*dT*dT*dA*dT*eT*eA*eA*eA) [compound 1736525]")
42
>>> endpoint_value("1736518: 6-10-4 MOE gapmer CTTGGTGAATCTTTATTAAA, linkages soossszzzssssssssss (e[5mC]*eTeTeG*eG*eT*dG[ms]dA[ms]dA[ms]dT*d[5mC]*dT*dT*dT*dA*dT*eT*eA*eA*eA) [compound 1736518]")
31
>>> endpoint_value("1736493 (e[5mC]*eTeT*eG*eG*eT*dG[ms]dA[ms]dA[ms]dT*d[5mC]*dT*dT*dT*dA[ms]dT*kT*kA*eA*eA; antisense) [Compound 1736493]")
8
>>> endpoint_value("1693101: 6-10-4 MOE gapmer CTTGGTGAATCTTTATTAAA, linkages sssssozzzssssszssss (e[5mC]*eT*eT*eG*eG*eTdG[ms]dA[ms]dA[ms]dT*d[5mC]*dT*dT*dT*dA[ms]dT*eT*eA*eA*eA) [compound 1693101]")
58
>>> endpoint_value("1736531 (e[5mC]*eT*eT*eG*eG*kTdG[ms]dA[ms]dA[ms]dT*d[5mC]*dT*dT*dT*dA[ms]dT*eT*eA*eA*eA; antisense) [Compound 1736531]")
33
>>> endpoint_value("1652902: 6-10-4 MOE gapmer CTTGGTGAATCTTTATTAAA, linkages sooooossssssssssoss (antisense e[5mC]*eTeTeGeGeTdG*dA*dA*dT*d[5mC]*dT*dT*dT*dA*dT*eTeA*eA*eA) [compound 1652902]")
4
>>> endpoint_value("1736514 (e[5mC]*eTeT*eG*kG*kT*dG[ms]dA[ms]dA[ms]dT*d[5mC]*dT*dT*dT*dA[ms]dT*eT*eA*eA*eA; antisense) [Compound 1736514]")
25
